Origin of measurements: PubChem BioAssay AID2060486

So I've got a bunch of compounds here, and I need their IC50 values.
test system: IGROV1 complex spheroids (HUVEC, MSC), viability % test/control; experiment: Anticancer human tumor IGROV1 cell line growth inhibition [GQUAD]; settings: curve of first compound; second compound 0.0316 µM;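 note: spheroids exposed to compounds for 7 days before readout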
Give bare numbers, in nM.

Examples with answers:
Req: Return reported IC50; argument: O=c1[nH]cc(F)c(=O)[nH]1 + Cc1cnc(CNC(=O)c2c(=O)c3ccc(N4CCCN(C)CC4)nc3n3c2sc2ccccc23)cn1
Resp: 4520

Req: Please report the recorded IC50 for Cn1ncnc1[C@H]1c2n[nH]c(=O)c3cc(F)cc(c23)N[C@@H]1c1ccc(F)cc1 + Cc1[nH]c2ccc(F)cc2c1-c1nc2c3cccnc3c3ncccc3c2[nH]1 .
Resp: 149

From here, focus on the item given below.
Req: I'd like to know its IC50. The compound in question is O=C(c1cc(Cc2n[nH]c(=O)c3ccccc23)ccc1F)N1CCN(C(=O)C2CC2)CC1 + Cc1cnc(CNC(=O)c2c(=O)c3ccc(N4CCCN(C)CC4)nc3n3c2sc2ccccc23)cn1
Resp: 1610
